From: ChEMBL document CHEMBL1155072

# TGT: 5-hydroxytryptamine receptor 1D (Homo sapiens)
# Sequence (P28221 whole entry): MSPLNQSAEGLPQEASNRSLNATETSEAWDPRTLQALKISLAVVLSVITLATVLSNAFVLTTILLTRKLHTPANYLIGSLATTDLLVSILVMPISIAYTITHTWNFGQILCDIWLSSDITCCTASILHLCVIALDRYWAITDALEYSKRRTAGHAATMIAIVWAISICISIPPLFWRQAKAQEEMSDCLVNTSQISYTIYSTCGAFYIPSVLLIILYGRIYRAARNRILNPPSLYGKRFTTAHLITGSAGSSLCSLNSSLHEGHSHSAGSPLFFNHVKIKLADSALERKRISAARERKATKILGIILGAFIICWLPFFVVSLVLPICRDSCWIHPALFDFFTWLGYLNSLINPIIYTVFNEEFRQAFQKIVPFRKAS
MEASURED METRIC: Ki (nM)

1. O=C(N[C@H]1CCN(Cc2ccc(OC3CCNCC3)c(Br)c2)C1)c1ccc(Cl)c(Cl)c1 = 140

* * *

# TGT: Urotensin-2 receptor (Homo sapiens)
# Sequence (Q9UKP6 whole entry): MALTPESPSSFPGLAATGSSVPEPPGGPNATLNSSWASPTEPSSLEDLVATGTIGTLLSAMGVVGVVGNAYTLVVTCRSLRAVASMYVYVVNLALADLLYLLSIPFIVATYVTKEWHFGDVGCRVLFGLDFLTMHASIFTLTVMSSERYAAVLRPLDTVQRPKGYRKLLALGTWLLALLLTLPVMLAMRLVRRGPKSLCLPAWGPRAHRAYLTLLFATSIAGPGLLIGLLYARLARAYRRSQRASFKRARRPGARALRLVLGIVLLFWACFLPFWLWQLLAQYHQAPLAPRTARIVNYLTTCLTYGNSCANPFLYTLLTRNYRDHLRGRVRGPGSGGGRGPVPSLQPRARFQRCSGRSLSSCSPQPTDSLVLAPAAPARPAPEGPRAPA
# EXPERIMENTAL DETAILS: Displacement of [I125]hU2 from human recombinant urotensin 2 receptor expressed in HEK293 cells
pKi: −log10 of the molar value.
MEASURED METRIC: pKi

1) CN(C)CCCOc1ccc(CN2CCN(C(=O)c3ccc(Cl)c(Cl)c3)CC2)cc1 = < 5.00
2) CN(C)CCCOc1ccccc1CN1CC[C@H](NC(=O)c2ccc(Cl)c(Cl)c2)C1 = < 5.00
3) CN(C)CCCOc1ccc(CN(C)CCCNC(=O)c2ccc(Cl)c(Cl)c2)cc1 = < 5.00
4) CN(C)CCCOc1cccc(CN2CC[C@H](NC(=O)c3ccc(Cl)c(Cl)c3)C2)c1 = < 5.52
